experimental_system: Cytochrome P450 2D6 (Homo sapiens) (UniProt P10635)
Sequence (P10635 whole entry, looked up): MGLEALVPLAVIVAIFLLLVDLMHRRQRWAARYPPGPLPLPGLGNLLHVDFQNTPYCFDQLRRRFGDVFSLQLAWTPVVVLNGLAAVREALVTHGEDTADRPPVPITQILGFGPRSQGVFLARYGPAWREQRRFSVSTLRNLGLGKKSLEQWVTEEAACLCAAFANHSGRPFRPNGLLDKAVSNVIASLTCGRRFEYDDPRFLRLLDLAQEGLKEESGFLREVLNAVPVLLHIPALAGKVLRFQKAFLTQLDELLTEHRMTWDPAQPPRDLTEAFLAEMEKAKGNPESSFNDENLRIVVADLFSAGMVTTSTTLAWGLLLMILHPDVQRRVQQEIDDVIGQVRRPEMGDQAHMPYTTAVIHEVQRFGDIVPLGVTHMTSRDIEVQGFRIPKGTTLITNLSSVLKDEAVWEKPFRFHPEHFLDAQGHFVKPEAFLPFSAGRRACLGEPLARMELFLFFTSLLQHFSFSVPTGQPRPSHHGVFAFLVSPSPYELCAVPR
procedure_text: Cytochrome P450 Family 2 Subfamily D Member 6 (CYP2D6) small molecule antagonists: luciferase reporter qHTS assay (AID 1671196); also: nearly all actives have a fitted effect of over 50% in size
measurement_conditions: P450-Glo CYP2D6 enzyme assay, luciferin luminescence, 1 h; series mostly up to 115 µM
Records with an inconclusive call do not appear. Active and inactive are the calls of the source. Calls follow the shape of the dose curve; as a rule, active = well fitted inhibition curve with a large enough effect in the repeat runs; inconclusive = weak or mixed curves; inactive = no such curve, though single readings can be large or run the other way.
Assign a class; possible classes are yes for active, no for inactive

As a guide, the following entries are already answered.
[[record]]
molecular_string = "CCO[Si](CCC#N)(OCC)OCC"
experimental_system = "Cytochrome P450 2D6 (Homo sapiens) (UniProt P10635)"
assigned_label = "no"

[[record]]
molecular_string = "C[C@]12CC[C@@H]3c4ccc(O)cc4CC[C@H]3[C@@H]1C[C@@H](O)[C@@H]2O"
experimental_system = "Cytochrome P450 2D6 (Homo sapiens) (UniProt P10635)"
assigned_label = "no"

[[record]]
molecular_string = "CCCCCCCCCCO"
experimental_system = "Cytochrome P450 2D6 (Homo sapiens) (UniProt P10635)"
assigned_label = "no"

[[record]]
molecular_string = "CC(C)CCCCCCCOC(=O)CCCCC(=O)OCCCCCCCC(C)C"
experimental_system = "Cytochrome P450 2D6 (Homo sapiens) (UniProt P10635)"
assigned_label = "no"


Inquiry: Field: outcome | Entry: C=Cc1ccc(C)cc1
Reply text: no

Inquiry: Lookup Nc1ccc(Cl)c(N)c1
Reply text: no

Inquiry: Lookup NCCNCCN
Reply text: yes

Inquiry: Lookup CCOCCOCCOCCO
Reply text: no

----------
experimental_system: Cytochrome P450 2D6 (Homo sapiens)
procedure_text: Cytochrome P450 Family 2 Subfamily D Member 6 (CYP2D6) small molecule antagonists: luciferase reporter qHTS assay (AID 1671196); also: nearly all actives have a fitted effect of over 50% in size
measurement_conditions: P450-Glo CYP2D6 enzyme assay, luciferin luminescence, 1 h; series mostly up to 115 µM
Inconclusive results are not listed. The source made the active and inactive calls. The call rests on the fitted dose curve; in most records, active means well fitted inhibition curve with a large enough effect in the repeat runs; inconclusive means weak or mixed curves; inactive means no such curve, though single readings can be large or run the other way.
Assign a class; possible classes are yes (1) (active), no (0) (inactive)

Inquiry: Field: outcome | Entry: CC(C)(Oc1ccc(CCNC(=O)c2ccc(Cl)cc2)cc1)C(=O)O
Reply text: no (0)

Inquiry: Lookup COc1ccc(OC)cc1
Reply text: no (0)

Inquiry: Lookup CC(C)c1cccc(C(C)C)c1
Reply text: no (0)

Inquiry: Lookup OC1C(O)C(O)C(O)C(O)C1O (stereo unspecified)
Reply text: no (0)

Inquiry: Lookup C=CCCCCCCCCC(=O)O
Reply text: no (0)

----------
experimental_system: Luciferin 4-monooxygenase (Photinus pyralis)
procedure_text: qHTS assay to identify small molecule inhibitors of firefly luciferase (AID 1224835); also: nearly all actives have a fitted effect of over 25% in size
measurement_conditions: purified P. pyralis luciferase, luminescence inhibition; series mostly up to 115 µM
Records with an inconclusive call do not appear. Active and inactive are the calls of the source. Calls come from the whole dose curve; as a rule, active = well fitted inhibition curve with a large enough effect in the repeat runs; inconclusive = weak or mixed curves; inactive = flat fitted curve, though single readings scatter.
Assign a class; possible classes are active, inactive

[[record]]
compound = "CC(C)CCCCCCCOC(=O)CCCCC(=O)OCCCCCCCC(C)C"
assigned_label = "inactive"

[[record]]
compound = "CCO[Si](CCC#N)(OCC)OCC"
assigned_label = "inactive"

[[record]]
compound = "CC(C)(Oc1ccc(CCNC(=O)c2ccc(Cl)cc2)cc1)C(=O)O"
assigned_label = "active"


Inquiry: Field: outcome | Entry: O=C(O)c1ccccc1C(=O)O
Reply text: inactive

Inquiry: Lookup CC(=O)Oc1ccc(C)cc1
Reply text: inactive

Inquiry: Lookup CCOC(=O)n1ccn(C)c1=S
Reply text: inactive

Inquiry: Lookup O=C(O)CCCCCCCCC(=O)O
Reply text: inactive

Inquiry: Lookup CC(O)CC(C)(C)O (centres undefined)
Reply text: inactive

Inquiry: Lookup COC(=O)c1cccnc1
Reply text: inactive

Inquiry: Lookup C=C(C)[C@H]1CC=C(C)C(=O)C1
Reply text: inactive

Inquiry: Lookup CCOCCOCCOCCO
Reply text: inactive
